Values were extracted from PubChem BioAssay (Tox21).

protocolDescription: qHTS assay to test for compound auto fluorescence at 590 nm (red) in HepG2 cells (AID 720674)
measurementConditions: HepG2 autofluorescence, red 540/590 nm, 1 h; series mostly up to 91.3 µM
The source made the active and inactive calls. The call rests on the fitted dose curve; in most records, active means well fitted curve in the direction sought with a large enough effect in the repeat runs; inconclusive means weak or mixed curves; inactive means flat fitted curve, though single readings scatter.
propertyLabel: fluorescence, relative to Rose Bengal

O=C1NCN(c2ccccc2)C12CCN(CC1COc3ccccc3O1)CC2 (configuration not stated)
inactive
ClC(Cl)=C(Cl)Cl
inactive
CCCSP(=O)(OCC)SCCC
inactive
O=C(Nc1ccc2[nH]ccc2c1)c1cc2cc(F)ccc2n1Cc1cccc(F)c1
inactive

Need fluorescence, relative to Rose Bengal of C[C@]12CC[C@H]3[C@@H](CCC4=CC(=O)CC[C@@]43C)[C@@H]1CC[C@@H]2O , thanks.
inactive

Need fluorescence, relative to Rose Bengal of Nc1ccc(Cc2ccc(N)c(Cl)c2)cc1Cl , thanks.
inactive

Need fluorescence, relative to Rose Bengal of C[C@@H]1CC[C@@]2(OC1)O[C@H]1[C@@H](O)[C@H]3[C@@H]4CC[C@H]5C[C@@H](O[C@@H]6O[C@H](CO)[C@H](O[C@@H]7O[C@H](CO)[C@@H](O)[C@H](O[C@@H]8OC[C@@H](O)[C@H](O)[C@H]8O)[C@H]7O[C@@H]7O[C@H](CO)[C@@H](O)[C@H](O[C@@H]8O[C@H](CO)[C@@H](O)[C@H](O)[C@H]8O)[C@H]7O)[C@H](O)[C@H]6O)[C@H](O)C[C@]5(C)[C@H]4CC[C@]3(C)[C@H]1[C@@H]2C , thanks.
inactive
